assay: Proteolysis during production detected using mass spectroscopy; format: physicochemical; settings: proteolytic stability

molecule	Proteolysis During Production?
APL-G: Fc-linker fusion of apelin analogue QRPRLSHKGPMAF (P12A) (protein) MRAWIFFLLCLAGRALADKTHTSPPSPAPEAAGGPSVFLFPPKPKDTLMISRTPEVTCVVVDVSHEDPEVKFNWYVDGVEVHNAKTKPREEQYNSTYRVVSVLTVLHQDWLNGKEYKCKVSNKALPAPIEKTISKAKGQPREPQVYTLPPSREEMTKNQVNLTCLVKGFYPSDIAVEWESNGQPENNYKTTPPVLDSDGSFFLNSTLTVDKSRWQQGNVFSCSVMHEALHNHYTQKSLSLSPGKGGGGSGGGGSGGGGSQRPRLSHKGPMAF	No
